Answer each item with its documented % inhibition T4 40' 20.
Biological target: bacteriophage T4 DNA polymerase (Enterobacteria phage T4, UniProt P04415)
Construct: made in house
Sequence (P04415 whole entry): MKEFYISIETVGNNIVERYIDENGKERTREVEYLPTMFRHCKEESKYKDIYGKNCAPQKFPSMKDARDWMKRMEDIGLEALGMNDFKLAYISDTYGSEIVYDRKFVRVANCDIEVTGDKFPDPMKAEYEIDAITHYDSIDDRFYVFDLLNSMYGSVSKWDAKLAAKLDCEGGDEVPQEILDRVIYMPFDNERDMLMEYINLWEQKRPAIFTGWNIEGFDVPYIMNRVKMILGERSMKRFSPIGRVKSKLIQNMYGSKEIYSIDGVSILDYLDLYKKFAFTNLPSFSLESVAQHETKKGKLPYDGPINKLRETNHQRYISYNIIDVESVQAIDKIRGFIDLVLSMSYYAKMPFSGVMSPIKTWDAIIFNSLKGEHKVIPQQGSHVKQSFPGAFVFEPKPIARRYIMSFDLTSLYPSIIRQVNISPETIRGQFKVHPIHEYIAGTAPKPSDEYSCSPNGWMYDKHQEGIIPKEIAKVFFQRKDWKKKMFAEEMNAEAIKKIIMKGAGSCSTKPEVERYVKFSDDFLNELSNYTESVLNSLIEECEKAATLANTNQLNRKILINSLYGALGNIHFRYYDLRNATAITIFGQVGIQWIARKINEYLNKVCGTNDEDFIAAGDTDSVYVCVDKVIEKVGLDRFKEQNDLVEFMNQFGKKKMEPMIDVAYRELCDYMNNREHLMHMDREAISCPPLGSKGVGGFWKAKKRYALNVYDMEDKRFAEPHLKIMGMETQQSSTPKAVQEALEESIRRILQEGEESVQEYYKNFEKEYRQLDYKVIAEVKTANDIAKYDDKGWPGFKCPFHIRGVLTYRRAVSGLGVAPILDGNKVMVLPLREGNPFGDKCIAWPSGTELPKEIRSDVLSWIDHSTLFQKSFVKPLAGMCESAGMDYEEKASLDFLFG
Assay: Counter-screen against bacteriophage T4 DNA polymerase
Format: biochemical
Conditions: DRC-2; read at 40'; concentration 20
A number alone suffices; assume %.

## Task Report % inhibition T4 40' 20, nothing else, for this molecule: O=C(c1ccccc1)N1CCc2c(nc3cc(-c4ccccc4)[nH]n3c2=O)C1
## Result -20

## Task Identify % inhibition T4 40' 20 associated with the molecule CC(=O)Nc1cc(C(=O)c2cccs2)nn(-c2ccc(Cl)cc2)c1=O
## Result 0.171

## Task Identify measured % inhibition T4 40' 20 associated with Cc1cc2[nH]c(C(=O)Nc3ccc(F)cc3)c(CN3CCOCC3)c2s1
## Result 21

## Task Respond only with % inhibition T4 40' 20 recorded for C#CC(C=CC)OC(=O)c1ccccc1C(=O)O (centres unmarked)
## Result 3.35

## Task Answer with reported % inhibition T4 40' 20 of Cn1nc(-c2nc(-c3ccccc3)no2)c2c1CCN(C(=O)Cc1cccs1)C2
## Result 22

## Task Answer with the recorded % inhibition T4 40' 20 of Cc1nc(C)c2c(n1)N(CC1CCCCC1)C(=O)CC2 only.
## Result 5.27

## Task Please list % inhibition T4 40' 20 recorded for the molecule Cc1ccsc1Cn1c(C)ccc1C
## Result 11

## Task Return reported % inhibition T4 40' 20. Input molecule: CC(C)CC(C(=O)O)N1C(=O)C2C3C=CC(C2C1=O)C1C(=O)N(C(CC(C)C)C(=O)O)C(=O)C31 (centres unmarked)
## Result 15

###

Target: P. falciparum apicoplast DNA polymerase (Pf-apPOL) (Plasmodium falciparum, UniProt Q8ILY1)
Sequence (Q8ILY1 entry or part of it): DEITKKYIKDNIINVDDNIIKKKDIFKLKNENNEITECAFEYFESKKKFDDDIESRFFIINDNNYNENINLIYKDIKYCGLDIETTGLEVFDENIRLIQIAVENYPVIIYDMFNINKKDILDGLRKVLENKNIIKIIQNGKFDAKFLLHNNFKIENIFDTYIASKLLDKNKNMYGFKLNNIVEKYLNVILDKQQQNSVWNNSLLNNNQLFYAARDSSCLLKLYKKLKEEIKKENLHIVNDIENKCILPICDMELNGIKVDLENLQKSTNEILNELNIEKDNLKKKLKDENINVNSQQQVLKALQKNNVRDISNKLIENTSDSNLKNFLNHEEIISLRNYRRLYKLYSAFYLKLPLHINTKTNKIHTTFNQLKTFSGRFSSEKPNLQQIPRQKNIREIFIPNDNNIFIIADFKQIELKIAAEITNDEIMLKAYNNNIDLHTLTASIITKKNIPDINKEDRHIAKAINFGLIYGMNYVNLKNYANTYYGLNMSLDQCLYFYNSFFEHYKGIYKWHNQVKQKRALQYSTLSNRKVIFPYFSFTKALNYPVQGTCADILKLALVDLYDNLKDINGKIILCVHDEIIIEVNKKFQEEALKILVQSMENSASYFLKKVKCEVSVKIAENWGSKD
Assay: Fluorescence-based high-throughput DNA polymerase assay (molecular beacon), primary screen and dose-response
Type: biochemical
Conditions: DRC-2; 5'; concentration 80
Parameter: % inhibition Apo pol 5'
Reply with the number, then its unit.

## Task Return % inhibition Apo pol 5' (reported value) for this compound: COc1ccc(-c2c(C(F)(F)F)nn3c(=O)cc(-c4cccc([N+](=O)[O-])c4)[nH]c23)cc1 [Molecule 16]
## Result 65%

## Task Specify reported % inhibition Apo pol 5' for the compound shown: CCN1C(=O)C(=Cc2cccc(OC)c2O)SC1=S [Molecule 78, CCN1C(=S)SC(=Cc2cccc(c2O)OC)C1=O]
## Result 40%

## Task Supply reported % inhibition Apo pol 5' belonging to this compound: COc1ccc(C=C2Oc3c(ccc4c3CN(Cc3ccco3)CO4)C2=O)c(OC)c1 [KU0199404]
## Result 49%

## Task Determine its reported % inhibition Apo pol 5': CC(C)CCNC(=O)c1cnn2c(O)cc(CSc3ccc(Cl)cc3)nc12 [Molecule 101]
## Result 69%

## Task Give % inhibition Apo pol 5' for the following compound: O=C(CSc1nc2ccccc2s1)Nc1ncc([N+](=O)[O-])s1 [KU0019667]
## Result -130%

## Task // Input: O=C(CSc1nnc(-c2ccncc2)[nH]1)c1ccc(O)c(O)c1 [Molecule 89] . Output its % inhibition Apo pol 5' only.
## Result 58%

## Task For the compound CC(NC(=O)Cc1cc(=O)[nH]c(SCc2cccc(Cl)c2)n1)c1ccccc1 (centres unmarked) [Molecule 67] , report % inhibition Apo pol 5'.
## Result 20%

## Task Report measured % inhibition Apo pol 5'; entry is NS(=O)(=O)c1ccc(NC(=O)c2ccc(N3C(=O)CCC3=O)cc2)cc1 [KU0025331]
## Result 37%

###

For each of the compounds below, state its % inhibition Apol 40'.
Target: P. falciparum apicoplast DNA polymerase (Pf-apPOL) (Plasmodium falciparum)
Assay: Fluorescence-based high-throughput DNA polymerase assay (molecular beacon), primary screen and dose-response
Format: biochemical
Details: conc 10 (unit not given); 40'; DRC-2
Kindly answer with a numeric value in %, unit omitted.

## Task Indicate the recorded % inhibition Apol 40' value for this compound: COc1ccccc1CCC(=O)N1CCc2c(nc3cc(-c4ccccc4)[nH]n3c2=O)C1 [Molecule 7]
## Result 57

## Task Read off the recorded % inhibition Apol 40' for O=[N+]([O-])c1cc2c(cc1CN1CCCCCC1)OCO2 [KU0004987]
## Result 22

## Task State, in one line, measured % inhibition Apol 40' of O=C(Nc1ncc([N+](=O)[O-])s1)c1ccc2c(c1)C(=O)N(N1C(=O)c3ccccc3C1=O)C2=O [KU0026378]
## Result 26

## Task Identify % inhibition Apol 40' associated with the compound O=C(O)CC1SC(c2ccc3c(c2)OCO3)=NC1=O (stereo not shown) [Molecule 69, OC(=O)CC1SC(=NC1=O)c1ccc2c(c1)OCO2]
## Result 16

###

Please provide measured % inhibition ApPOL 90' for the entries that follow.
Biological target: UniProtKB Q8ILY1
Test: Fluorescence-based high-throughput DNA polymerase assay (molecular beacon), primary screen and dose-response
Format: biochemical
Conditions: DRC-2; 90'; concentration 40
Entry rule: numbers only, all in %.

## Task Read off the recorded % inhibition ApPOL 90' for O=C(Nc1ccc2c(c1)Cc1cc(NC(=O)c3ccco3)ccc1-2)c1ccco1 [KU0038977]
## Result 71

## Task Determine from records and report % inhibition ApPOL 90' for CN(C)S(=O)(=O)Oc1ccc(-c2noc(-c3ccc(Oc4cc(Cl)cc(Cl)c4)o3)n2)cc1 [KU0263859]
## Result 67

## Task Using known records, supply % inhibition ApPOL 90' for C#CC(C=CC)OC(=O)c1ccccc1C(=O)O (stereo not drawn) [Molecule 61, CC=CC(OC(=O)c1ccccc1C(=O)O)C#C]
## Result 57

## Task Assign % inhibition ApPOL 90' to the following record: CO/N=C(\C(=O)N[C@@H]1C(=O)N2C(C(=O)[O-])=C(CSc3nc(=O)c([O-])nn3C)CSC12)c1csc(N)n1.[Na+].[Na+] (stereo partly drawn) [Molecule 83]
## Result 30

## Task Consider the molecule O=c1cc(-c2ccccc2Cl)oc2c(NS(=O)(=O)c3cc(Cl)cc(Cl)c3O)ccc(O)c12 [KU0104277] . State its measured % inhibition ApPOL 90'.
## Result 75

## Task Give the reported value of % inhibition ApPOL 90' for this record: Cc1cccc(CC(=O)N2CCc3c(nc4cc(-c5ccccc5)[nH]n4c3=O)C2)c1 [Molecule 12]
## Result 70

## Task Please list % inhibition ApPOL 90' recorded for the molecule O=C(O)c1cccc(N2N=C(C(F)(F)F)/C(=C/c3ccc(-c4ccccc4[N+](=O)[O-])o3)C2=O)c1 [Molecule 100]
## Result 77

## Task Item O=C(O)C(=O)Nc1nc(-c2ccc3c(c2)OCCO3)cs1 [Molecule 82, OC(=O)C(=O)Nc1scc(n1)c1ccc2c(c1)OCCO2] : provide % inhibition ApPOL 90'
## Result 34

## Task Please give the documented % inhibition ApPOL 90' of CCc1ccccc1NC(=O)c1ccc(-c2ncccc2NC(C)=O)cc1 [KU0203112]
## Result 70

## Task Given the molecule COc1ccc(C=C2Oc3c(ccc4c3CN(c3ccc5c(c3)OCO5)CO4)C2=O)cc1OC [KU0199426] , write its reported % inhibition ApPOL 90'.
## Result 41

## Task Specify measured % inhibition ApPOL 90' for Cc1ccc(C)n1-c1ccc(C(=O)NNC(=O)c2ccc3nccnc3c2)cc1 [Molecule 53] .
## Result 64

## Task Tell me % inhibition ApPOL 90' reported for COc1ccc(-c2cc(=O)c3cc(O)ccc3o2)cc1OC [KU0193655]
## Result 53

## Task In one line, give reported % inhibition ApPOL 90' of the entry CCOc1cccc2cc(C(=O)Nc3nnc(-c4ccno4)o3)oc12 [Molecule 28, CCOc1cccc2c1oc(c2)C(=O)Nc1nnc(o1)c1ccno1] .
## Result 66

## Task // fetch % inhibition ApPOL 90' given entry COc1ccc2c(c1)C(c1ccccc1OC)CC(=O)O2 (stereo not drawn) [Molecule 38, COc1ccc2c(c1)C(CC(=O)O2)c1ccccc1OC]
## Result 74

## Task For the molecule O=C(Cn1ccc2c(=O)[nH]ccc21)Nc1cccc(Cl)c1 [Molecule 23, O=C(Cn1ccc2c1cc[nH]c2=O)Nc1cccc(c1)Cl] , give its reported % inhibition ApPOL 90'.
## Result 67

## Task Please give the documented % inhibition ApPOL 90' of O=C(Nc1cccc(Cl)c1)Nc1nnc(-c2ccncc2)s1 [KU0022348]
## Result 73

## Task Fill in % inhibition ApPOL 90' for record Oc1cccc2ccc(/C=C/c3ccc4c(c3)OCO4)nc12 [KU0025984]
## Result 72

## Task Please list % inhibition ApPOL 90' recorded for the molecule CCOC(=O)C1=C2c3cc(OC)c(OC)cc3CC(C)(C)N2C(=O)C1=O [KU0193659]
## Result 64

## Task Let me know recorded % inhibition ApPOL 90' for Cc1ccc(NC(=O)C2CCN(C(=O)c3cc4ccsc4[nH]3)CC2)c(Br)c1 [Molecule 14] , thanks.
## Result 68

## Task Quick one: give measured % inhibition ApPOL 90' for O=C(Cn1ccc2c(=O)[nH]ccc21)Nc1ccc(Cl)cc1 [Molecule 36, O=C(Cn1ccc2c1cc[nH]c2=O)Nc1ccc(cc1)Cl]
## Result 67

## Task Tell me measured % inhibition ApPOL 90' for O=C(Cc1cc(=O)[nH]c(SCc2ccccc2)n1)Nc1ccc2c(c1)OCO2 [Molecule 46] please.
## Result 60

## Task Give me measured % inhibition ApPOL 90', please, for this molecule: O=C(NCC1CCN(C2CCCC2)CC1)C(=O)NC1CCCC1 [KU0199596]
## Result 40

## Task State its % inhibition ApPOL 90' for this molecule: COc1cc(Cl)c(C)cc1NC(=O)Cn1ccc2c(=O)[nH]ccc21 [Molecule 33]
## Result 65

## Task Please give the documented % inhibition ApPOL 90' of O=C1C(=Cc2ccccc2O)Oc2ccc(O)cc21 [KU0196475]
## Result 53

## Task // Input: COCCN(CCOC)Cc1c(O)ccc2c1OC(=Cc1cc(Br)ccc1OC)C2=O [KU0198471] . Output its % inhibition ApPOL 90' only.
## Result 75

## Task Give the measured % inhibition ApPOL 90' for O=C1N=C(Nc2cccc(Cl)c2Cl)S/C1=C\c1ccco1 [Molecule 3, O=C1N=C(S/C/1=C\c1ccco1)Nc1cccc(c1Cl)Cl]
## Result 53

## Task For CC(C)(C)OC(=O)COc1ccc2cc(-c3ccccc3)c(=O)oc2c1 [Molecule 81] , write its % inhibition ApPOL 90'.
## Result 27

## Task Supply recorded % inhibition ApPOL 90' for Cc1cc(C)c(O)c(/N=C/c2cc([N+](=O)[O-])cc(Br)c2O)c1 [KU0046272] here.
## Result 47

## Task Give reported % inhibition ApPOL 90' value for CC(=O)c1cc2c(N)c(/C(N)=N/C#N)sc2nc1C [KU0015866]
## Result 45

## Task For the molecule O=C1C(=Cc2ccncc2)Oc2c1ccc1c2CN(Cc2ccc3c(c2)OCO3)CO1 [KU0199357] , give its measured % inhibition ApPOL 90' value.
## Result 36

## Task Name the recorded % inhibition ApPOL 90' of the molecule listed here: Cc1ccc(-n2nnc(C(=O)O)c2-c2ccccn2)c(F)c1 [Molecule 54, Cc1ccc(c(c1)F)n1nnc(c1c1ccccn1)C(=O)O]
## Result 52

## Task Answer with the recorded % inhibition ApPOL 90' of O=C(Cc1cccs1)N1CCN(c2nc(CN3CCOCC3)cs2)CC1 [Molecule 35] only.
## Result 69

## Task In one line, give reported % inhibition ApPOL 90' of the entry CCCCSc1nnc2c(n1)OC(c1ccc([N+](=O)[O-])o1)Nc1ccccc1-2 (stereo not drawn) [KU0065811] .
## Result 62
